Each recorded value in this set is attributed to paper PMC11302733.

assay_name: Cytotoxicity, resazurin reduction assay
Format: cell-based
condition_label: Macaca mulatta, LLC-MK2 cells (Macaca mulatta kidney cells), 100.0–0.195 µM, three independent assays in duplicate wells, read-out: IC50 (CC50) Llc-mk2, with 95% confidence interval
No end group written: not given here.
quantity_name: CC50 at 24 h (µM)
# unit: µM | format: bare number

substance="GFLDVIKHVGKAALSVVSHLINE-NH2 [CZS-4]" numeric_value=70.7
substance="GFLDTLKNIGKTVGRIALNVLT-NH2 [PTS-1]" numeric_value=80.1
substance="GFLDVLKGVGKAALGAVTHLINQ-NH2 [CZS-16]" numeric_value=5.59

Now for a further substance.
Q. Please report the recorded CC50 at 24 h for GFLDIVKGVGKVALGAVSKLF-NH2 [CZS-1] .
A. 3.17

----------
assay_name: Cytotoxicity, resazurin reduction assay
Format: cell-based, murine
condition_label: mouse; RAW 264.7 macrophages, resazurin reduction, 24 h, 100.0–0.195 µM, three independent assays in duplicate wells; read-out: IC50 (CC50) Raw 264.7, with 95% confidence interval
No end group written: not given here.
Recorded CC50 at 24 h for the following substances
Please answer using a numeric value trailed by its unit.

substance="GFLDTLKNIGKTVGRIALNVLT-NH2 [PTS-1]" quantity_name="CC50 at 24 h" result="2.52 µM"
substance="GFLDVIKHVGKAALSVVSHLINE-NH2 [CZS-4]" quantity_name="CC50 at 24 h" result="48 µM"
substance="GFLDVLKGVGKAALGAVTHLINQ-NH2 [CZS-16]" quantity_name="CC50 at 24 h" result="4.4 µM"

# input for lookup
Q. Give its CC50 at 24 h value. Item: GFLDIVKGVGKVALGAVSKLF-NH2 [CZS-1]
A. 2.38 µM

----------
assay_name: Cytotoxicity, resazurin reduction assay
Format: cell-based, murine
condition_label: mouse
No end group written: not given here.
quantity_name: CC50 at 24 h (µM)
Write the number in µM without appending the unit.

Q. Can you look up the measured CC50 at 24 h of ASWKVFLKNIGKAAGKAVLNSVTDMVNQ-NH2 [DRS-SP2] for me?
A. 3.14

----------
System: T. cruzi trypomastigotes (Tulahuen, Tula β-gal)
Type: cell-based, Trypanosoma cruzi
condition_label: trypomastigotes (Tulahuen, Tula β-gal, 4 h)
No end group written: not given here.
quantity_name: IC50 (nM)
Quick reminder: number only, in nM, skip the unit.

// below: answered substances
substance="GFLDIVKGVGKVALGAVSKLF-NH2 [CZS-1]" numeric_value=2870
substance="GFLDTLKNIGKTVGRIALNVLT-NH2 [PTS-1]" numeric_value=1420
substance="GFLDVLKGVGKAALGAVTHLINQ-NH2 [CZS-16]" numeric_value=18700

Now look at this one.
Q. Query (substance): GFLDVIKHVGKAALSVVSHLINE-NH2 [CZS-4] ; field requested: IC50
A. 1550
